target: Human EphA2 (Ecto) (Human) (UniProt P29317); assay: FP competition, tracer Compound 18
Sequence (P29317 24-537): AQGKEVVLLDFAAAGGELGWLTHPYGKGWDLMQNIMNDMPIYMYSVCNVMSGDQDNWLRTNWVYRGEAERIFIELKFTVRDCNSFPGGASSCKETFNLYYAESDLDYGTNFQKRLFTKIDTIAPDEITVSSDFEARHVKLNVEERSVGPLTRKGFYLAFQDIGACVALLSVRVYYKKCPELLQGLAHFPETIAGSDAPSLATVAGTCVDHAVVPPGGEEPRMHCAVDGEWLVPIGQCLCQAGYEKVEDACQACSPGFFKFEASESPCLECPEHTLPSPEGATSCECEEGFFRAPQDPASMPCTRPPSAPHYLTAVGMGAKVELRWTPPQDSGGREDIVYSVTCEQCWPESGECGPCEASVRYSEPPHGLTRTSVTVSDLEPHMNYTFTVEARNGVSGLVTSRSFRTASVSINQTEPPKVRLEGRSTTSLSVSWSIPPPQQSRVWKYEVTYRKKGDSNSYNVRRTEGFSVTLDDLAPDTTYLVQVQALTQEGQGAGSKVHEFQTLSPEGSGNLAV
Starred links: 1 amine or outer side, 2 acyl side, 3 side chain; linkers in the order of their positions; H or OH if unused. Positions of bridges follow the written chain, without caps; N, C: chain ends. Non-standard residues stand in square brackets, D forms with d. No end group written: not given here. 1Nal = N[C@@H](Cc1cccc2ccccc12)C(=O)O; TBMB = c1c(C[*:1])cc(C[*:3])cc1C[*:2]; Gly(cPent) = N[C@H](C(=O)O)C1CCCC1; hArg = N=C(N)NCCCC[C@H](N)C(=O)O; Tle = CC(C)(C)[C@H](N)C(=O)O; Aib = CC(C)(N)C(=O)O; βAla = NCCC(=O)O; Sar = CNCC(=O)O
Assay Readout: Ki (nM)
Give the quantity in nM, number only.

Binder	Ki / nM
[βAla][Sar][Sar][Sar][Sar][Sar][Sar][Sar][Sar][Sar][Sar]H[dD]VPCP[1Nal]G[Aib]F[1Nal]CP[Tle]N[hArg][Aib][dD]C (linker 16-23-30 via TBMB) [Bicycle Compound 259]	0.91
[βAla][Sar][Sar][Sar][Sar][Sar][Sar][Sar][Sar][Sar][Sar]H[dD]VPC[Aib]WGP[hArg]WCP[Tle]N[hArg]P[dD]C (linker 16-23-30 via TBMB) [Bicycle Compound 247]	29.7
[βAla][Sar][Sar][Sar][Sar][Sar][Sar][Sar][Sar][Sar][Sar]H[dD]VPC[Aib][1Nal]G[Aib]F[1Nal]CP[Tle]NRPGC (linker 16-23-30 via TBMB) [Bicycle Compound 234]	3.94
[βAla][Sar][Sar][Sar][Sar][Sar][Sar][Sar][Sar][Sar][Sar]H[dD]VPCP[1Nal]G[Aib]F[1Nal]CP[Tle]NRPGC (linker 16-23-30 via TBMB) [Bicycle Compound 252]	0.37
Ac-[Sar][Sar]A[dD]VTCP[1Nal]G[Aib]F[1Nal]CP[Tle]N[hArg]P[dD]C (linker 7-14-21 via TBMB) [Bicycle Compound 184]	1.19
[βAla][Sar][Sar][Sar][Sar][Sar][Sar][Sar][Sar][Sar][Sar]H[dD]VPCP[1Nal]G[Aib][hArg][1Nal]CP[Tle]N[hArg]P[dD]C (linker 16-23-30 via TBMB) [Bicycle Compound 251]	1.93
[βAla][Sar][Sar][Sar][Sar][Sar][Sar][Sar][Sar][Sar][Sar]H[dD]VPCP[1Nal]G[Aib][hArg][1Nal]CP[Tle]NR[Aib][dD]C (linker 16-23-30 via TBMB) [Bicycle Compound 250]	1.48
[βAla][Sar][Sar][Sar][Sar][Sar][Sar][Sar][Sar][Sar][Sar]H[dD]VPC[Aib][1Nal]GP[hArg][1Nal]CP[Tle]N[hArg]P[dD]C (linker 16-23-30 via TBMB) [Bicycle Compound 244]	2.8
[βAla][Sar][Sar][Sar][Sar][Sar][Sar][Sar][Sar][Sar][Sar]H[dD]VPC[Aib][1Nal]G[Aib]F[1Nal]CP[Tle]NR[Aib]GC (linker 16-23-30 via TBMB) [Bicycle Compound 239]	4.91
Ac-[Sar][Sar]H[dD]VPCP[1Nal]G[Aib]F[1Nal]CP[Tle]NR[Aib]GC (linker 7-14-21 via TBMB) [Bicycle Compound 262]	0.71

Input: Any idea what Ki was measured for [βAla][Sar][Sar][Sar][Sar][Sar][Sar][Sar][Sar][Sar][Sar]H[dD]VPC[Aib]WGP[hArg]WCP[Tle]N[hArg]P[dD]C (linker 16-23-30 via TBMB) [Bicycle Compound 246] ?
Output: 31.4

Input: Any idea what Ki was measured for [βAla][Sar][Sar][Sar][Sar][Sar][Sar][Sar][Sar][Sar][Sar]H[dD]VPCP[1Nal]G[Aib]F[1Nal]CP[Tle]N[hArg]PGC (linker 16-23-30 via TBMB) [Bicycle Compound 257] ?
Output: 1.07

Input: Any idea what Ki was measured for [βAla][Sar][Sar][Sar][Sar][Sar][Sar][Sar][Sar][Sar][Sar]H[dD]VPC[Aib][1Nal]G[Aib]FWCP[Tle]N[hArg]P[dD]C (linker 16-23-30 via TBMB) [Bicycle Compound 242] ?
Output: 7.77

Input: Any idea what Ki was measured for [βAla][Sar][Sar][Sar][Sar][Sar][Sar][Sar][Sar][Sar][Sar]H[dD][Gly(cPent)]PC[Aib]WG[Aib]FWCP[Tle]NR[Aib][dD]C (linker 16-23-30 via TBMB) [Bicycle Compound 275] ?
Output: 15.9

Input: Any idea what Ki was measured for Ac-[Sar][Sar]A[dD]VTCP[1Nal]G[Aib]F[1Nal]CP[Tle]NR[Aib]GC (linker 7-14-21 via TBMB) [Bicycle Compound 183] ?
Output: 1.02
